# Measured on: Cannabinoid receptor 1 (Homo sapiens)
# Assay details: Displacement of [3H]-CP55940 from human CB1 receptor expressed in HEK-293-EBNA cell membranes after 90 mins by scintillation counting
Property: Ki; scope: individual molecules
Field format: number, assumed nM, no unit text.

These solved cases illustrate the format of a correct answer.
C[C@H](CO)NC(=O)CCC/C=C\C/C=C\C/C=C\C/C=C\CCCCOC(=O)CCCCCNC(=O)CCCC[C@@H]1SC[C@@H]2NC(=O)N[C@@H]21 ... 2000
C#CCCCC(=O)OC[C@@H](C)NC(=O)CCC/C=C\C/C=C\C/C=C\C/C=C\CCCCC ... 2000
C#CCCCC(=O)OCC(CO)OCCCC/C=C\C/C=C\C/C=C\C/C=C\CCCCC (centres undefined) ... 84.7
CCCCC/C=C\C/C=C\C/C=C\C/C=C\CCCCOC(CO)COC(=O)CCCCCNC(=O)CCCC[C@@H]1SC[C@@H]2NC(=O)N[C@@H]21 (some centres undefined) ... 221
C#CCCCC(=O)N[C@@H](Cc1ccc(C(=O)c2ccccc2)cc1)C(=O)OC[C@@H](C)NC(=O)CCC/C=C\C/C=C\C/C=C\C/C=C\CCCCC ... 2000
CCCCC/C=C\C/C=C\C/C=C\C/C=C\CCCCOC(CO)CO ... 25

# ---- query molecule ----
Problem: Please look up its Ki: CCCCC/C=C\C/C=C\C/C=C\C/C=C\CCCC(=O)N[C@H](C)COC(=O)CCCCCNC(=O)CCCC[C@@H]1SC[C@@H]2NC(=O)N[C@@H]21
Solution: 2000

###

# Measured on: Cannabinoid receptor 1 (Homo sapiens, UniProt P21554)
# Sequence (P21554 whole entry): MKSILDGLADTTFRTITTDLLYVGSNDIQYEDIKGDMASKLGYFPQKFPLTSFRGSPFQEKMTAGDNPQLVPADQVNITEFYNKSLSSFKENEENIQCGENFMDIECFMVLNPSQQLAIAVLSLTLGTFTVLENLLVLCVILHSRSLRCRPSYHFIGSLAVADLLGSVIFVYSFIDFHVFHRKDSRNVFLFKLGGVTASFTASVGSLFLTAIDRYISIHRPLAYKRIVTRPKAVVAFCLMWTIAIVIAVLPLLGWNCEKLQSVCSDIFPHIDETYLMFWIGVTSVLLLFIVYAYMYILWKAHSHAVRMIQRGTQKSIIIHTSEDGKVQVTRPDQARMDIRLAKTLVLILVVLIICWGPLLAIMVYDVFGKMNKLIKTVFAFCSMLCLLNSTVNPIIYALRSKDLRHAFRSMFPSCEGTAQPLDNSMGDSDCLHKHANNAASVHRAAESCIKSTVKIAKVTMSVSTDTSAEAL
# Assay details: Binding affinity to CB1 receptor
Measurement type: pKi
Remember the convention: pKi equals -log10 of concentration in molar.

Problem: Dear colleague, I am looking for the recorded pKi of the following compound: CCCCCCC(C)(C)c1cc(O)c2c(c1)OC(C)(C)[C@@H]1CC=C(CO)C[C@@H]21
Solution: 10.22

###

Form: system (Cannabinoid receptor 2 (Homo sapiens, UniProt P34972)), quantity (Ki), values below.

Known Ki results, listed for orientation:
C[C@H](CO)NC(=O)CCC/C=C\C/C=C\C/C=C\C/C=C\CCCCOC(=O)CCCCCNC(=O)CCCC[C@@H]1SC[C@@H]2NC(=O)N[C@@H]21 ... > 2 µM
CCCCC/C=C\C/C=C\C/C=C\C/C=C\CCCCOC(CO)CO ... > 1 µM
O=C(CCCC[C@@H]1SC[C@@H]2NC(=O)N[C@@H]21)NCCCCCC(=O)OCCCC/C=C\C/C=C\C/C=C\C/C=C\CCCC(=O)NC1CC1 ... > 2 µM

Then there is this molecule:
Problem: # input molecule: CCCCC/C=C\C/C=C\C/C=C\C/C=C\CCCC(=O)N[C@H](C)COC(=O)CCCCCNC(=O)CCCC[C@@H]1SC[C@@H]2NC(=O)N[C@@H]21 ; wanted: its Ki
Solution: > 2 µM
